- Target Of Assay: T1, human LAG3 (construct not stated) (human, UniProt P18627 23-450, limits assumed)
- T1 construct: also called human LAG3 protein; antigen
- T1 sequence (looked up): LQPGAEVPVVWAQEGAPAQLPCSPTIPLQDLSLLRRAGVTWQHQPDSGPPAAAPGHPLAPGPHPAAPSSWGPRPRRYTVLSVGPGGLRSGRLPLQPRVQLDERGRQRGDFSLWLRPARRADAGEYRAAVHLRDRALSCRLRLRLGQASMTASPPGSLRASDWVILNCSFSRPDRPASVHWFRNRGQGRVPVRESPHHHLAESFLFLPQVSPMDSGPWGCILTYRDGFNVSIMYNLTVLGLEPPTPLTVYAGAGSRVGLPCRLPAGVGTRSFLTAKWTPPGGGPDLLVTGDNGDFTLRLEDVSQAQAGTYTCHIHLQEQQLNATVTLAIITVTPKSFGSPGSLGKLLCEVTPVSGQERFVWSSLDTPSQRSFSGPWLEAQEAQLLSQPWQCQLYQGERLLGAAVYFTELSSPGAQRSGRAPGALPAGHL
- Test Summary: BLI Octet Red 96, full kinetics, antigen 50-3.125 nM
Readout: koff (s⁻¹)
Express your answer in s⁻¹, writing the number without its unit.

147H chimeric antibody (antibody, V domains shown) VH: QVQLQQSGSELVRPGTSVKISCKASGYTFTNYWLGWIKQRPGHGLEWIGDIYPGGDYINYNEKFKGKATLSADTSSSTAYMQLSSLTSEDSAVYFCARPNLPGDYWGQGTSVTVSS VL: DIVMTQAAFSNPVTLGTSASISCRSSKSLLHSNGITYLYWYLQKPGQSPQLLIYQVSNLASGVPGRFSGSGSGTDFTLRISRVEAEDVGVYYCAQNLELPWTFGGGTKLEIK :: 0.00217
147H-13 (antibody, V domains shown, Common light chain; human gamma 1 / kappa constant domains; also called 147H4-13) VH: EVQLVQSGAEVKKPGASVKVSCKASGYTFTNYWLGWIKQAPGQGLEWIGDIYPGGDYINYNEKFKGKATLTADTSISTAYMELSRLRSDDTAVYYCARPNLPGDYWGQGTTVTVSS VL: DIVMTQSPLSLPVTPGEPASISCRSSKSLLHSNGITYLYWYLQKPGQSPQLLIYQVSNLASGVPDRFSGSGSGTDFTLKISRVEAEDVGVYYCAQNLELPWTFGGGTKVEIK :: 0.0019
147H-14 (antibody, V domains shown, Common light chain; human gamma 1 / kappa constant domains) VH: EVQLVQSGAEVKKPGASVKVSCKASGYTFTNYWLGWIKQAPGQGLEWIGDIYPGGDYINYNEKFKGKATLTADTSISTAYMELSRLRSDDTAVYFCARPNLPGDYWGQGTTVTVSS VL: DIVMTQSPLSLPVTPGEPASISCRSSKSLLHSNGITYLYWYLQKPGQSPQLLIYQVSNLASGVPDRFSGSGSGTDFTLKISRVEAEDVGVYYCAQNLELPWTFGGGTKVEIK :: 0.00204

Can you look up the measured koff of 147H-7 (antibody, V domains shown, Common light chain; human gamma 1 / kappa constant domains) VH: QVQLVQSGAEVKKPGASVKVSCKASGYTFTNYWLGWIKQAPGQGLEWIGDIYPGGDYINYNEKFKGKATLTADTSISTAYMELSRLRSDDTAVYFCARPNLPGDYWGQGTTVTVSS VL: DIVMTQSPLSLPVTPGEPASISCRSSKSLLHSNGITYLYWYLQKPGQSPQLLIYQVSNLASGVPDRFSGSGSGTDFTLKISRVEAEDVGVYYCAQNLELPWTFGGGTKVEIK for me?
0.00312

Can you look up the measured koff of 147H-6 (antibody, V domains shown, Common light chain; human gamma 1 / kappa constant domains) VH: QVQLVQSGAEVKKPGASVKVSCKASGYTFTNYWLGWIKQAPGQGLEWIGDIYPGGDYINYNEKFKGKATLTADTSISTAYMELSRLRSDDTAVYYCARPNLPGDYWGQGTTVTVSS VL: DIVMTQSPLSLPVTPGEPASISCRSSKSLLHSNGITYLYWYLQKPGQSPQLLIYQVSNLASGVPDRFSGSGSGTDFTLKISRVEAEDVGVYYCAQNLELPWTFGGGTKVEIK for me?
0.00259
